Sourced from paper PMC6945494

Assay: Solubility in water and 1-octanol
Format: physicochemical
Settings: water
Property: solubility at 24 h (mg/mL)

> print(dat)
                                   compound            property  output.unit  test.value
1  Nc1nc(=O)n([C@@H]2CS[C@H](CO)O2)cc1F [FTC, emtricitabine]  solubility at 24 h        mg/mL         143

====

Test: Solubility in water and 1-octanol
Type: physicochemical
Conditions: 1-octanol
Property: solubility at 24 h (µg/mL)

> print(dat)
                                   compound  test.value
1  Nc1nc(=O)n([C@@H]2CS[C@H](CO)O2)cc1F [FTC, emtricitabine]         970

====

Test system: HIV-1ADA
Experiment: EC50 by HIV-1 RT activity in MDM
Assay type: cell-based
Conditions: Human immunodeficiency virus 1, 240 h, read-out: EC50 (HIV-1 RT activity)
Property: EC50

> print(dat)
                                   molecule  experimental.target  test.value
1  Nc1nc(=O)n([C@@H]2CS[C@H](CO)O2)cc1F [FTC, emtricitabine]             HIV-1ADA      0.5 nM

====

Assay: Pharmacokinetics and biodistribution after a single IM injection
Assay type: in vivo, Sprague Dawley rats
Settings: male, Sprague Dawley, rat, whole blood, intramuscular, 45 mg/kg FTC-equivalent
Property: concentration at 7 days

> print(dat)
                        compound.smiles                 property  test.value
1  Nc1nc(=O)n([C@@H]2CS[C@H](CO)O2)cc1F  concentration at 7 days   < 2 ng/mL

====

Test system: HIV-1NL4–3-eGFP
Experiment: microbe, parasite or virus in culture
Type: cell-based
Conditions: Human immunodeficiency virus 1, T-cell, 240 h, read-out: EC50 (RT activity)
Property: EC50 (nM)

> print(dat)
                                   molecule  test.value
1  Nc1nc(=O)n([C@@H]2CS[C@H](CO)O2)cc1F [FTC, emtricitabine]        25.7
